Property: HT-perm/logPe pH6.8; scope: individual compounds
- testDescription: Parallel Artificial Membrane Permeability Assay (PAMPA) at pH 6.8
- Type: physicochemical

structureAsSmiles	HT-perm/logPe pH6.8
Cc1ccncc1-n1c(=O)n(C)c2cnc3ccc(-c4ccc(CO)nc4)cc3c21	−6.1
CNc1ccc(-c2ccc3ncc4c(c3c2)n(-c2ccc(OC)nc2OC)c(=O)n4C)cn1	−3.8
CCOc1ccc(-c2ccc3ncc4c(c3c2)n(-c2cnccc2C)c(=O)n4C)cn1	−3.5
Cc1ncccc1-n1c(=O)n(C)c2cnc3ccc(-c4cnc(N)c(C(F)(F)F)c4)cc3c21	−4.0
Cn1c(=O)n(-c2cccnc2F)c2c3cc(-c4cnc(N)c(C(F)(F)F)c4)ccc3ncc21	−3.8
Cc1ncccc1-n1c(=O)n(C)c2cnc3ccc(-c4cnc5c(ccn5C)c4)cc3c21	−3.9
Cc1cccnc1-n1c(=O)n(C)c2cnc3ccc(-c4cnc5[nH]ccc5c4)cc3c21	−5.0
